- target_desc: KPC-2 (Klebsiella pneumoniae, UniProt Q9F663)
- particulars: read-out: IC50 β-lactamase KPC-2; class (A); nitrocefin 200 μM, 30-min pre-incubation, enzyme 1 nM
pIC50: −log10 of the molar value.
property_label: pIC50

>>> measurement("CC(=O)Nc1cnn(C2=CC3CN(C2)C(=O)N3OS(=O)(=O)[O-])c1.[Na+] (stereo not drawn)")
6.57
>>> measurement("N#Cc1ccn(C2=CC3CN(C2)C(=O)N3OS(=O)(=O)[O-])n1.[Na+] (stereo not drawn)")
8.43
>>> measurement("O=C([O-])CCc1cn(C2=CC3CN(C2)C(=O)N3OS(=O)(=O)[O-])nn1.[Na+].[Na+] (stereo not drawn)")
8.22
>>> measurement("O=C1N2CC(n3cc(S(=O)(=O)NCCO)cn3)=CC(C2)N1OS(=O)(=O)[O-].[Na+] (stereo not drawn)")
8.52
>>> measurement("NCCNC(=O)Cc1ccn(C2=CC3CN(C2)C(=O)N3OS(=O)(=O)[O-])n1.O=C(O)C(F)(F)F.[Na+] (stereo not drawn)")
6.89
>>> measurement("NC(=O)c1cn(C2=CC3CN(C2)C(=O)N3OS(=O)(=O)[O-])nn1.[Na+] (stereo not drawn)")
8.62
>>> measurement("O=C1N2CC(n3cc(N4CCOCC4)cn3)=CC(C2)N1OS(=O)(=O)[O-].[Na+] (stereo not drawn)")
6.92
>>> measurement("NCc1cn(C2=CC3CN(C2)C(=O)N3OS(=O)(=O)[O-])nn1.O=C(O)C(F)(F)F.[Na+] (stereo not drawn)")
7.96
>>> measurement("NCCONC(=O)c1cnn(C2=CC3CN(C2)C(=O)N3OS(=O)(=O)[O-])c1.O=C(O)C(F)(F)F.[Na+] (stereo not drawn)")
8.28
>>> measurement("O=C1N2CC(n3ccnn3)=CC(C2)N1OS(=O)(=O)[O-].[Na+] (stereo not drawn)")
8.33
>>> measurement("O=C1N2CC(n3cc(-c4nccs4)nn3)=CC(C2)N1OS(=O)(=O)[O-].[Na+] (stereo not drawn)")
9.09
>>> measurement("NCc1cnn(C2=CC3CN(C2)C(=O)N3OS(=O)(=O)[O-])c1.O=C(O)C(F)(F)F.[Na+] (stereo not drawn)")
6.92
>>> measurement("O=C([O-])Cc1cn(C2=CC3CN(C2)C(=O)N3OS(=O)(=O)[O-])nn1.[Na+].[Na+] (stereo not drawn)")
7.77
>>> measurement("O=C1N2CC(n3ccc(-c4ncco4)n3)=CC(C2)N1OS(=O)(=O)[O-].[Na+] (stereo not drawn)")
8.57
>>> measurement("NCc1ccn(C2=CC3CN(C2)C(=O)N3OS(=O)(=O)[O-])n1.O=C(O)C(F)(F)F.[Na+] (stereo not drawn)")
6.74

From: patent US10722520B2
